Each entry below lists one item and its recorded protein stability index value.
B1: RAB40A (parent)
chain: NWLGRPSKVLSLQDLCCRTIVSCT

variants of: B1; test: protein stability index of a GFP-peptide fusion (GPS, HEK-293T) (PSI 1-6); higher = more stable; details: c terminus: a fixed tail appended;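 further: lentivirally expressed fusions sorted by FACS into six bins by GFP to DsRed ratio, PSI derived from sequencing read proportions per bin multiplied by bin number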

Dear colleague, I am looking for the recorded protein stability index of the following variant: D14F 2.14

Dear colleague, I am looking for the recorded protein stability index of the following variant: I20Y 2.1

Dear colleague, I am looking for the recorded protein stability index of the following variant: T19Q 2.31

Dear colleague, I am looking for the recorded protein stability index of the following variant: V21G 2.64

Dear colleague, I am looking for the recorded protein stability index of the following variant: S7Q 2.47

Dear colleague, I am looking for the recorded protein stability index of the following variant: L12F 2.75

Dear colleague, I am looking for the recorded protein stability index of the following variant: R18I 1.68
